Record form. Attribute: activation. Fill in for each entry.
biological target: Integrin alpha-4 (Homo sapiens); assay: enhancers of LDV-FITC binding to VLA-4 integrin, primary screen, Jurkat cells, flow cytometry (AID 528); settings: stronger effect = higher value, screened at 10 µM (by protocol);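 further: 0% = ligand binding without compound and 100% = manganese-stimulated maximal binding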
Screen size: about 24,000 compounds; fewer than 10 were called active. About 9% were inconclusive and are not listed. These entries were drawn from the full list.
Numbers only, in %.

compound: C=CCn1c(=N)n(CC(O)COc2ccc(OC)cc2)c2ccccc21 (stereo not drawn)
activation / %: 0
//
compound: Cc1nnc(C)n1/N=C/c1ccc(C(C)C)cc1
activation / %: -4
//
compound: CCC1CCCCN1CCNS(=O)(=O)c1ccc2c(c1)CCN2C(C)=O (stereo not drawn)
activation / %: -4

Give activation for each of the items listed below.
1. CCc1c(C)c2c(C)[nH]nc2oc1=O
2. CC(c1ccco1)N(C(=O)c1ccc(S(=O)(=O)N2CCCCC2)cc1)c1ccccn1 (stereo not drawn)
3. Cc1oc(-c2cccc(Cl)c2)[n+]([O-])c1C
4. O=C(CNS(=O)(=O)c1ccc(Br)s1)NCc1ccc2c(c1)OCO2
5. COc1ccc(C(=O)N(CCN2CCOCC2)CC(=O)NC2CCCC2)cc1OC

Result ::
1: -1; 2: -5; 3: 8; 4: -4; 5: 6.5

---

molecular target: Integrin alpha-4 (Homo sapiens); assay: enhancers of LDV-FITC binding to VLA-4 integrin, primary screen, Jurkat cells, flow cytometry (AID 528); details: stronger effect = higher value, screened at 10 µM (by protocol);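 further: 0% = ligand binding without compound and 100% = manganese-stimulated maximal binding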
The campaign covered roughly 24,000 compounds. Fewer than 10 were called active. Inconclusive results (about 9%) are left out. Not all results are given here.
reported.endpoint: activation (%)
One number for each entry, in %.

# count of solved cases: 4
compound: CC1CCCN(C(=O)c2ccc3c(c2)C(=O)N(CCC2=CCCCC2)C3=O)C1 (centres undefined)
activation, %: 0
//
compound: O=c1c(-c2ccccc2)coc2c(CN3CCOCC3)c(O)ccc12
activation, %: 9.5
//
compound: Cc1noc(C)c1S(=O)(=O)N(CC(=O)NCc1ccc(Cl)cc1)c1ccc2c(c1)OCO2
activation, %: 3
//
compound: CCOc1ccccc1NC(=O)C1CCN(S(=O)(=O)c2c(C)nn(C)c2C)CC1
activation, %: 2

Give activation for each of the items listed below.
1. Cc1ccccc1NC(=O)c1ccccc1
2. COc1cc2[nH]c(=S)n(CCN3CCCCC3C)c(=O)c2cc1OC (centres undefined)
3. CCOC(=O)c1ccc(CS(=O)c2ccc(Cl)cc2)o1 (centres undefined)
4. O=C(O)c1ccc(NC(=O)c2cccs2)cc1
5. Cn1c(=O)c2c(nc(N3CCCCCC3)n2CC(=O)c2ccc(Br)cc2)n(C)c1=O
6. O=C(CC1Oc2ccccc2NC1=O)NCCCN1CCN(Cc2ccccc2)CC1 (centres undefined)

Result ::
-14.5
-3
4
-2.5
-1
-1

Give activation for each of the items listed below.
1. CCCCCOC(=O)C1=C(C)Nc2nnnn2C1c1ccc(OC)c(OC)c1OC (centres undefined)
2. CCOC(=O)C1CCN(C(=O)c2oc3ccc(S(=O)(=O)N4CCCCCC4)cc3c2C)CC1
3. CC1CCC(NS(=O)(=O)c2ccc3c(c2)n(C)c(=O)c(=O)n3C)CC1 (centres undefined)

Result ::
1. -4
2. -3
3. 6

Give activation for each of the items listed below.
1. COc1ccc(OC)c(N=Cc2c(O)[nH]c3ccccc23)c1
2. CCOc1ccc(-n2c(SC(C)C(=O)OC)nc3c(c2=O)SCC3)cc1 (centres undefined)
3. C=CCOC(=O)C1=C(C)OC(N)=C(C#N)C1c1ccc(F)cc1 (centres undefined)
4. O=C(c1ccc(=O)[nH]c1)N(Cc1ccco1)C1(C(=O)NC2CCCCC2)CCCCC1

Result ::
8
0
-2.5
8

Give activation for each of the items listed below.
1. CCOC(=O)c1ccc(-n2c(C)nc3c(cnn3-c3ccccc3C)c2=O)cc1
2. Cn1cccc1C1(C(F)(F)F)NCCNC1=O (centres undefined)

Result ::
1. -2.3
2. 1
